- assayName: qHTS assay to identify small molecule antagonists of the estrogen related receptor (ERR) signaling pathway from Tox21 library (AID 1224848); also: nearly all actives have a fitted effect of over 50% in size
- conditionContext: ERR reporter cell line, luciferase antagonist mode, 18 h; series mostly up to 92.4 µM
- Description: U.S. Tox21 Program National Center for Advancing Translational Sciences [NCATS] NIH Chemical Genomics Center [NCGC] U.S. Environmental Protection Agency [EPA] National Institutes of Environmental Health Sciences [NIEHS] National Toxicology Program [NTP] U.S. Food and Drug Administration [FDA] Tox21 Assay Overview: Estrogen related receptors (ERRs), the first orphan nuclear receptors discovered, play an important role in the control of cellular energy metabolism. […]
Results filed as inconclusive are left out. Activity calls are given as the source filed them. Calls follow the shape of the dose curve; as a rule, active = well fitted inhibition curve with a large enough effect in the repeat runs; inconclusive = weak or mixed curves; inactive = no such curve, though single readings can be large or run the other way.
Outcome field: choose from YES (active), NO (inactive)

For orientation, consider the following solved cases.
Query string: Per the assay record, what outcome was assigned to `CCC(COC(=O)CCS)(COC(=O)CCS)COC(=O)CCS` ?
Result string: NO

Query string: Please indicate how the test categorized `CCOc1ccc2ccccc2c1C(=O)N[C@@H]1C(=O)N2[C@@H]1SC(C)(C)[C@@H]2C(=O)O` .
Result string: NO

Query string: Hi, sorry to bother you, what did the test record for `CC(C)OC(=O)C(O)(CC(=O)O)CC(=O)O` ?
Result string: NO

Next:
Query string: Please indicate how the test categorized `O=C1C(c2[nH]c3ccc(S(=O)(=O)O)cc3c2O)=Nc2ccc(S(=O)(=O)O)cc21` .
Result string: NO

Query string: Assay result, entry `Nc1nc(-c2ccccc2)cs1` — outcome?
Result string: NO

Query string: Outcome logged for `O=C(O)c1cc(=O)c2ccccc2o1` in this assay:
Result string: NO

Query string: Dear all, I need the recorded test outcome for `OC[C@H]1O[C@H](O[C@H]2O[C@H](CO)[C@@H](O)[C@H](O)[C@H]2O)[C@H](O)[C@@H](O)[C@@H]1O` , thank you.
Result string: NO

Query string: I'd appreciate the recorded outcome for `COc1cc(/C=C/c2ccccc2)oc(=O)c1` from this test.
Result string: NO

Query string: Name the outcome recorded for `CC(C)=CCC1=C(O)c2ccccc2C(=O)C1=O` in the assay.
Result string: YES

Query string: Assay outcome for `C#C[C@]1(O)CC[C@H]2[C@@H]3[C@H](C)CC4=C(CCC(=O)C4)[C@H]3CC[C@@]21C` : what was it?
Result string: YES

Query string: Could you kindly confirm the outcome this assay logged for `O=C(O)c1cc(N=Nc2ccc([N+](=O)[O-])cc2)ccc1O` ?
Result string: NO

Query string: For `Cc1ccc(C)cc1` , which call appears in the assay record?
Result string: NO

Query string: # lookup: test call for `CCCCCCCC/C=C\CCCCCCCCN`
Result string: NO

Query string: Look up the recorded call for `CC/C=C\CCCCCO` in this test.
Result string: NO

Query string: Fill in: this test's call for `CN(C)C(=O)COC(=O)Cc1ccc(OC(=O)c2ccc(N=C(N)N)cc2)cc1` is ___
Result string: NO

Query string: So what was the verdict on `COc1cc(C)ccc1O` in this test?
Result string: NO

Query string: Please state the recorded outcome for this molecule: `C#C[C@]1(OC(C)=O)CC[C@H]2[C@@H]3CCC4=C[C@@H](OC(C)=O)CC[C@@H]4[C@H]3CC[C@@]21C`
Result string: YES

Query string: Record request — test call for `Cc1ccc(-c2ccccc2)cc1`
Result string: NO

Query string: Could you kindly confirm the outcome this assay logged for `O=C1NC(=O)[C@@H]2CC=CC[C@H]12` ?
Result string: NO

Query string: Dear colleague, could you share the recorded outcome for CCO[C@@H]1O[C@H](C(COCc2ccccc2)OCc2ccccc2)[C@H](OCc2ccccc2)[C@H]1O (stereo partly drawn) when you have a moment?
Result string: YES

Query string: Call for entry `C=C(C)C(=O)OCCCCCCCCCC` :
Result string: NO

Query string: Field: outcome | Entry: `COC1=C(OC)C(=O)C(CCCCCCCCCCO)=C(C)C1=O`
Result string: YES

Query string: Can you look up the reported call for OC12N=C(c3ccccc3)SC1Cc1cc(Cl)ccc12 (stereo not drawn) for me?
Result string: NO
